System: Staphylococcus epidermidis
Test: The compound was tested for its antibacterial activity against Staphylococcus epidermidis.
Type: functional, organism-based
quantity name: pIC50
The value called pIC50 is obtained by taking minus log10 of the concentration in mol/L.

Q: Fill in: pIC50 of CSCC[C@H](NC=O)C(=O)NC(C)(C)C(=O)OCC1OC(n2cc(F)c(=O)[nH]c2=O)CC1O (stereo partly specified) is ___
A: 4.30

====

Assay: Half-life was determined
Assay type: ADME
Settings: human
quantity name: half-life (min)
Just the number in min, nothing appended.

Reference set, count: 3
| molecule | half-life [min] |
| --- | --- |
| CSCC[C@H](NC=O)C(=O)N1CCC[C@H]1C(=O)OCC1OC(n2cc(F)c(=O)[nH]c2=O)CC1O (some centres undefined) | 4.68 |
| CSCC[C@H](NC=O)C(=O)N1CCC[C@@H]1C(=O)OCC1OC(n2cc(F)c(=O)[nH]c2=O)CC1O (some centres undefined) | 15.2 |
| CSCC[C@H](NC=O)C(=O)N(C)[C@@H](CC(C)C)C(=O)OCC1OC(n2cc(F)c(=O)[nH]c2=O)CC1O (some centres undefined) | 2.07 |

Next molecule, please.
Q: Consider the molecule shown here: CSCC[C@H](NC=O)C(=O)NC(C)(C)C(=O)OCC1OC(n2cc(F)c(=O)[nH]c2=O)CC1O (some centres undefined) What is its recorded half-life?
A: 51.1

The origin of these recorded values is ChEMBL document CHEMBL1133127.
